Documented TGI across a set of molecules
- Test system: MDA-MB-435
- assay-procedure: NCI tumour cell line growth inhibition, 48 h
Note: unit µM is implicit; provide only the numeric part.

// worked examples, TGI included
O=C1Oc2ccccc2C1C/C(=N\Nc1ccccc1)c1ccccc1O (stereo not given); 76.2
FC(F)(F)c1ccccc1C1SCC2=Nc3ccccc3CN21 (stereo not given); 93.1

Next, consider the following molecule.
Specify TGI for `O=C1/C(=C/c2ccc(Cl)c(Cl)c2)CN(C(=O)C(Cl)Cl)C/C1=C\c1ccc(Cl)c(Cl)c1` , system MDA-MB-435. 0.546

###

- Tested on: MDA-N
- assay-procedure: NCI tumour cell line growth inhibition, 48 h
observable: TGI

// worked examples, TGI included
CC1(C)OP(=O)(c2ccccc2)C=C1Sc1ccc([N+](=O)[O-])cc1[N+](=O)[O-] (stereo not given); > 100 µM
CCN(CC)CCCNc1c2c(Cl)cc(Cl)cc2nc2nc(=O)[nH]c(C)c12; 37.7 µM

Please give the documented TGI of `COc1ccc(-n2c(CCC(=O)O)nc3c2C(=O)c2ccccc2C3=O)cc1` > 100 µM

Please give the documented TGI of CCS(=O)C(=O)N(O)c1ccc(Cl)cc1 (stereo not given) 41.4 µM

Please give the documented TGI of `COc1ccc(-c2cc(=O)c3c(O)c(OC)c(OC)c(OC)c3o2)cc1OC` > 100 µM
